target: calcium channels (Oryctolagus cuniculus, UniProt P15381); construct: from tissue; host or cells: heart of female New Zealand white rabbits, membrane fraction (42,000×g pellet); experiment: Inhibition of nitrendipine binding (3H-nitrendipine displacement, rabbit heart membranes); design: species or system rabbit (New Zealand white); details: Table I, 90 min, 4° C.
Sequence (P15381 whole entry, other chains not shown): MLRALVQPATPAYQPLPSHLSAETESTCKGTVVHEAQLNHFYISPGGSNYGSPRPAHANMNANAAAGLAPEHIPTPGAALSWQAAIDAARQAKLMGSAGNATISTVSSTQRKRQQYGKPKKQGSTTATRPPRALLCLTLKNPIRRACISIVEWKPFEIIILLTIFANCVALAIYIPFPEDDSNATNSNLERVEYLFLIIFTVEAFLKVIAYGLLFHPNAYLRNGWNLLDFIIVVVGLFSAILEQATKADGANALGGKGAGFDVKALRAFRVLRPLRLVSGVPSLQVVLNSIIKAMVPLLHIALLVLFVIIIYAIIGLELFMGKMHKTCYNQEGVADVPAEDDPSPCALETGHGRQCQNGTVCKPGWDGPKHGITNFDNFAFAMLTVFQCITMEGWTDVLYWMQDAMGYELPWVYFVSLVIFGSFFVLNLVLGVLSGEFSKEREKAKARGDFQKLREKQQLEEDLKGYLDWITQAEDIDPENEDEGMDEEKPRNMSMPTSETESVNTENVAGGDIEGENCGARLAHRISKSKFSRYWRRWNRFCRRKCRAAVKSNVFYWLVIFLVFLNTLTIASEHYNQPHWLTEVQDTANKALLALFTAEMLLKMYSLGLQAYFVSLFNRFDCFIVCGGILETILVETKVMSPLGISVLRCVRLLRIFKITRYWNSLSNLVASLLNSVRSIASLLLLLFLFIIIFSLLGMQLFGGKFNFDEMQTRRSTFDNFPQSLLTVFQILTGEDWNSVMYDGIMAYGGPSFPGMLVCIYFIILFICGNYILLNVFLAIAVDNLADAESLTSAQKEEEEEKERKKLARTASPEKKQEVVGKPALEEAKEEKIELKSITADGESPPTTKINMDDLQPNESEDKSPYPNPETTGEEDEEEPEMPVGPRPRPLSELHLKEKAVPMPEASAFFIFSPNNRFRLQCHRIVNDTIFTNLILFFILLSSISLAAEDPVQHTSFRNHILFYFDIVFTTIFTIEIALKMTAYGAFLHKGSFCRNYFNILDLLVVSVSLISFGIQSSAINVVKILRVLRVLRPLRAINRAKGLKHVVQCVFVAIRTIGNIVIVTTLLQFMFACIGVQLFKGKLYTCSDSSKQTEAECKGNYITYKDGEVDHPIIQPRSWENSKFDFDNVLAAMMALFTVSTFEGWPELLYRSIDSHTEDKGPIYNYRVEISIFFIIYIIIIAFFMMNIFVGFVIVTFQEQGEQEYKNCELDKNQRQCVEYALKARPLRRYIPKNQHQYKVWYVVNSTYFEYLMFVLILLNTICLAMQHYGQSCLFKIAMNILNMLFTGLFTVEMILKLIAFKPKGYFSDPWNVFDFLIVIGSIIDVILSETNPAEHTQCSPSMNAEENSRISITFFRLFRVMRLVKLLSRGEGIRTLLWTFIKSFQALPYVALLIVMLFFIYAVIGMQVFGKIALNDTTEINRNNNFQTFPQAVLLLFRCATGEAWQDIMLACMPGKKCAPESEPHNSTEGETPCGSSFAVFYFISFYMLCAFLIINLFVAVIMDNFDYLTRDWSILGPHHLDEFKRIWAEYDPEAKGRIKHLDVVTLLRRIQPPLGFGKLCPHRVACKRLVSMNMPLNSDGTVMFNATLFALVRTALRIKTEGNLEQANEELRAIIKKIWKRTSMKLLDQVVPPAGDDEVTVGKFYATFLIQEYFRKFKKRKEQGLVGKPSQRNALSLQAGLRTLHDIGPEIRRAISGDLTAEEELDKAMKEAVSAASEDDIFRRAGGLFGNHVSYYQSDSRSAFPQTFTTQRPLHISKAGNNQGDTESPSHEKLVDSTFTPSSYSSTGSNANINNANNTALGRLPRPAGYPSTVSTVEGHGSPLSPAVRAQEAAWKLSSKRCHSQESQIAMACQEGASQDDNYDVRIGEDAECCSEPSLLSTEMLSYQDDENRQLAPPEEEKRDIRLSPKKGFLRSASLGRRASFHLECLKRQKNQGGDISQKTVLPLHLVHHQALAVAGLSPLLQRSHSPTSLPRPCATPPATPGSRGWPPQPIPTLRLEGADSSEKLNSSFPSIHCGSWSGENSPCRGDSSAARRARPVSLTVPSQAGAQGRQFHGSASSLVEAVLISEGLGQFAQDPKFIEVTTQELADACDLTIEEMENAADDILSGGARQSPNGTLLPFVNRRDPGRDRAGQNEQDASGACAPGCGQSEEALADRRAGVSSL
Sequence (P13806 27-960 partner limits assumed, other chains not shown): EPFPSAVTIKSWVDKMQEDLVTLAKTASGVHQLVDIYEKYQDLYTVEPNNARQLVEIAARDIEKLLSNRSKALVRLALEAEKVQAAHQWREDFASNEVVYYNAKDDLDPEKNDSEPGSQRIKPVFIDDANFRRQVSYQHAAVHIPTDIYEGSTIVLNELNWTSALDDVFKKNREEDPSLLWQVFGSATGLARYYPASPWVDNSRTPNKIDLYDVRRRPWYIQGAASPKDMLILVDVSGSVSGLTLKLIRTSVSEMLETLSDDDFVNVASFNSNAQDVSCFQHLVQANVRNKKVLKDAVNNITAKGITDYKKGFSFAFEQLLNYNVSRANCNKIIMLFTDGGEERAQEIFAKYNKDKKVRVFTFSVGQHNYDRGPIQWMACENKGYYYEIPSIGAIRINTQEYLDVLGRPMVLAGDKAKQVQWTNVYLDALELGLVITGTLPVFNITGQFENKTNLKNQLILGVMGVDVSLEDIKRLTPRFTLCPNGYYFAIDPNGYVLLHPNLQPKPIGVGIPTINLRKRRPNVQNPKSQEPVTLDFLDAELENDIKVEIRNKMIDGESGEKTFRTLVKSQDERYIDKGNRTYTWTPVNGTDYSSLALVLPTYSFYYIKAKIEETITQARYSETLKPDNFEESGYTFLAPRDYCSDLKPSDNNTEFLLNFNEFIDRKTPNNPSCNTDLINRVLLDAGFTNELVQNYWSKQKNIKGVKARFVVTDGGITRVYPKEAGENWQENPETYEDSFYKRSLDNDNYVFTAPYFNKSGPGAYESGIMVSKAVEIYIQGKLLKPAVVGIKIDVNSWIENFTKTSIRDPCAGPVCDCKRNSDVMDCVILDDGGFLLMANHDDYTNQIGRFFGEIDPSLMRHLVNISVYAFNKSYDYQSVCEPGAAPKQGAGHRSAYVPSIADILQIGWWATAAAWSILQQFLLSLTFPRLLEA
Sequence (P13806 961-1106 partner limits assumed, other chains not shown): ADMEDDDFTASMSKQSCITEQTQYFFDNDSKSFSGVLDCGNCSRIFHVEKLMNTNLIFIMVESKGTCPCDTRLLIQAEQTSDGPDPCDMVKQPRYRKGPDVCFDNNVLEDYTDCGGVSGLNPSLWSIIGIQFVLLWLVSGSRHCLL
pIC50: −log10 of the molar value.

- Compound: "CCOC(=O)C1=C(C)NC2=C(C1c1cccc([N+](=O)[O-])c1)S(=O)(=O)CCCC2 (stereo not shown)"
  pIC50: 7.36
- Compound: "CC1=C(C(=O)OCCN(C)Cc2ccccc2)C(c2c(F)c(F)c(F)c(F)c2F)C2=C(CCCCS2(=O)=O)N1 (stereo not shown)"
  pIC50: 7.46
- Compound: "CC1=C(C(=O)OCCN(C)Cc2ccccc2)C(c2cccc([N+](=O)[O-])c2)C2=C(CCCS2(=O)=O)N1 (stereo not shown)"
  pIC50: 5.73
- Compound: "CC1=C(C(=O)OCc2ccccc2)C(c2ccccc2[N+](=O)[O-])C2=C(CCCS2(=O)=O)N1 (stereo not shown)"
  pIC50: 5.47
- Compound: "COC(=O)C1=C(C)NC2=C(C1c1c(F)c(F)c(F)c(F)c1F)S(=O)(=O)CC2 (stereo not shown)"
  pIC50: 6.82
- Compound: "COC(=O)C1=C(C)NC2=C(C1c1cccc(C#N)c1)S(=O)(=O)CC2 (stereo not shown)"
  pIC50: 5.70
- Compound: "COC(=O)C1=C(C)NC2=C(C1c1c(F)c(F)c(F)c(F)c1F)S(=O)(=O)CCC2 (stereo not shown)"
  pIC50: 6.40

---

tested on: trachealis muscle; assay: Inhibition of calcium dependent smooth muscle contraction (KCl-challenged trachea); type: cell-based, dog; details: Canis lupus familiaris; Table II; concentration 0.1 μM; read-out: Inhibition Trachea Muscle Contraction % Inhibition
This listing pairs molecules with measured inhibition at 0.1 µM.

- Molecule: "CC1=C(C(=O)OCCN(C)c2ccccc2)C(c2ccccc2C(F)(F)F)C2=C(CCCCS2(=O)=O)N1 (centres unmarked)"
  inhibition at 0.1 µM [%]: 59
- Molecule: "CC1=C(C(=O)OCCN(C)c2ccccc2)C(c2c(F)c(F)c(F)c(F)c2F)C2=C(CCCCCS2(=O)=O)N1 (centres unmarked)"
  inhibition at 0.1 µM [%]: 47
- Molecule: "CC1=C(C(=O)OCCN(C)c2ccccc2)C(c2ccccc2[N+](=O)[O-])C2=C(CCCCS2(=O)=O)N1 (centres unmarked)"
  inhibition at 0.1 µM [%]: 57
- Molecule: "CC1=C(C(=O)OCCN(C)Cc2ccccc2)C(c2c(F)c(F)c(F)c(F)c2F)C2=C(CCCCCS2(=O)=O)N1 (centres unmarked)"
  inhibition at 0.1 µM [%]: 50
- Molecule: "CC1=C(C(=O)OCCN(C)Cc2ccccc2)C(c2ccccc2C(F)(F)F)C2=C(CCCCS2(=O)=O)N1 (centres unmarked)"
  inhibition at 0.1 µM [%]: 64

---

Recorded pIC50 for the following compounds
target: calcium channels (Oryctolagus cuniculus, UniProt P15381); construct: from tissue; host or cells: heart of female New Zealand white rabbits, membrane fraction (42,000×g pellet); test: Inhibition of nitrendipine binding (3H-nitrendipine displacement, rabbit heart membranes); parameters: species or system rabbit (New Zealand white); details: Table II, 90 min, 4° C.
pIC50: −log10 of the molar value.

- Compound: "CC1=C(C(=O)OCCN2CCc3ccccc3C2)C(c2cccc([N+](=O)[O-])c2)C2=C(CCCCS2(=O)=O)N1 (stereo not drawn) [4 3-NO2C6 H4 drawing 11]"
  pIC50: 6.70
- Compound: "CC1=C(C(=O)OCCN(C)Cc2ccccc2)C(c2cccc(C(F)(F)F)c2Cl)C2=C(CCCCCCS2(=O)=O)N1 (stereo not drawn)"
  pIC50: 6.33
- Compound: "CC1=C(C(=O)OCCN(C)Cc2ccccc2)C(c2c(Cl)cccc2Cl)C2=C(CCCCS2(=O)=O)N1 (stereo not drawn)"
  pIC50: 7.07
- Compound: "CC1=C(C(=O)OCCN(C)Cc2ccccc2)C(c2cccc(Cl)c2Cl)C2=C(CCCCS2(=O)=O)N1 (stereo not drawn)"
  pIC50: 7.00
- Compound: "CC1=C(C(=O)OCCN(C)CCc2ccccc2)C(c2cccc(Cl)c2Cl)C2=C(CCCCCS2(=O)=O)N1 (stereo not drawn)"
  pIC50: 6.83
- Compound: "CC1=C(C(=O)OCCN(C)Cc2ccccc2)C(c2cccc(C(F)(F)F)c2Cl)C2=C(CCCCCS2(=O)=O)N1 (stereo not drawn)"
  pIC50: 6.70
- Compound: "CC1=C(C(=O)OCCN(C)Cc2ccccc2)C(c2ccccc2OC(F)F)C2=C(CCCCCS2(=O)=O)N1 (stereo not drawn)"
  pIC50: 7.02
- Compound: "CC1=C(C(=O)OCCN2CCc3ccccc32)C(c2cccc([N+](=O)[O-])c2)C2=C(CCCCS2(=O)=O)N1 (stereo not drawn) [4 3-NO2C6 H4 drawing 9]"
  pIC50: 7.00
- Compound: "CC1=C(C(=O)OCCN(C)Cc2ccccc2)C(c2ccccc2OC(F)F)C2=C(CCCCS2(=O)=O)N1 (stereo not drawn)"
  pIC50: 7.14
- Compound: "CC1=C(C(=O)OCCN(C)Cc2ccccc2)C(c2cc([N+](=O)[O-])ccc2Cl)C2=C(CCCCS2(=O)=O)N1 (stereo not drawn)"
  pIC50: 6.59
- Compound: "CC1=C(C(=O)OCCN(C)Cc2ccccc2)C(c2ccccc2[N+](=O)[O-])C2=C(CCCCS2(=O)=O)N1 (stereo not drawn)"
  pIC50: 6.36
- Compound: "CC1=C(C(=O)OCCN(C)Cc2ccccc2)C(c2cccc(C(F)(F)F)c2)C2=C(CCCCS2(=O)=O)N1 (stereo not drawn)"
  pIC50: 5.55
